Entry source: patent US20200239579A1

experimentalTarget: T1, PDLoneECDHisCtag (human, UniProt Q9NZQ7 19-238)
T1 construct: Expressed in HEK-293F cells; theoretical molecular weight 29 kDa; also called recombinant human PD-L1 ECD; human PD-L1 (BLI); not shown: C-terminal His-tag; C-tag
T1 sequence (Q9NZQ7 19-238, form in doubt): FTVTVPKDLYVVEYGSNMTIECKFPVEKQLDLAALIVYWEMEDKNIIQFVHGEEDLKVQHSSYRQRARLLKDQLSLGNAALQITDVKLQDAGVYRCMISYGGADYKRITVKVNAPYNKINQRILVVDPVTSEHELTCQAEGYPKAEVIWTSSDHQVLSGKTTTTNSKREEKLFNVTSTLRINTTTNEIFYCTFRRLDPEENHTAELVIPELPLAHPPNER
testDescription: BLI cross-block, second antibody on PDLoneECDHisCtag held by immobilised MPDL; bold = blocking
Listed next: entries and their corresponding association response of the second antibody.
readout: association response of the second antibody (nm)

INSERT INTO measurements (binder, resultunit, resultvalue) VALUES
  ('IgG1-511-LC33S-FEAR (antibody, V domains shown) VH: QVQLVQSGSELKKPGASVMVSCKASGYTFTSYVMNWVRQAPGQGLEWMGWINSYTGNPTSAQGFTGRFVFSFDTSVNTAYLQISSLKAEDTAVYYCARGYCTSTSCYLDYWGQGTLVTVSS VL: SYELTQPPSVSVSPGHTARITCSGDALPKKYASWFQQKSGQAPVLVIYEDSKRPSGIPERFSGSTSGTMATLTISGAQVEDETDYYCYSADTSGTHRVFGGGTKLTVLG', 'nm', 0),
  ('IgG1-421-LC91S-FEAR (antibody, V domains shown) VH: EVQLVESGGGLVQPGRSLRLSCAASGFTFDDYAMHWVRQGPGKGLEWVSGIRWNSGSMHYADSVKGRFTISRDNAKSSLYLQMNSLRAEDTALYYCARAPWYSGAWHPDYWGQGTLVTVSS VL: QSALTQPRSVSGSPGQSVTISCTGTSSDVGTYNYVSWYQQHPGKAPKLMIYDVIKRPSGVPDRFSGSKSGNTASLTLSGLQAEDEADYYCSSYAGTYTLLFGGGTKLTVL', 'nm', 0),
  ('IgG1-547-FEAR (antibody, V domains shown) VH: EVQLLEPGGGLVQPGGSLRLSCEASGSTFSTYAMSWVRQAPGKGLEWVSGFSGSGGFTFYADSVRGRFTISRDSSKNTLFLQMSSLRAEDTAVYYCAIPARGYNYGSFQHWGQGTLVTVSS VL: SYVLTQPPSVSVAPGQTARITCGGNNIGSKSVHWYQQKPGQAPVLVVYDDNDRPSGLPERFSGSNSGNTATLTISRVEAGDEADYYCQVWDSSSDHVVFGGGTKLTVLG', 'nm', 0);
